Tested on: Nucleic Acid
Assay: DNA binding property estimated by measuring denaturation temperature on GC to poly (dGC)-poly(dGC), normalized to ethidium bromide
measured.endpoint: ΔTm
Please state the value as a number alone, without comment.

Examples with answers:
# smiles.record, ΔTm
records = [
    ("COc1cc(C(=N)N)ccc1OCCCCOc1ccc(C(=N)N)cc1OC", 0.2),
    ("N=C(N)c1ccc(NCCCNc2ccc(C(=N)N)cc2N)c(N)c1", 0.9),
    ("CC[n+]1c(-c2ccccc2)c2cc(N)ccc2c2ccc(N)cc21", 1),
    ("N=C(N)c1ccc(OCCCCCCOc2ccc(C(=N)N)cc2)cc1", 0.5),
]

Any idea what its ΔTm is? The compound is `N=C(N)c1cccc(OCCCCCCOc2cccc(C(=N)N)c2)c1` 0.5

Try this compound next: `N=C(N)c1ccc(OCCCCCOc2ccc(C(=N)N)cc2[N+](=O)[O-])c([N+](=O)[O-])c1` 0.6

---

Test system: Calf thymus DNA
Assay: Denaturation temperature change on binding to calf thymus DNA
Type: functional
Decision: ΔTm >= 10 yields 1, all other cases yield -1.

Does the compound `N=C(N)c1ccc(OCCCCOc2ccc(C(=N)N)cc2Cl)c(Cl)c1` have recorded ΔTm that is 10 or more? -1

Please do the same for `N=C(N)c1ccc(OCCCCCOc2ccc(C(=N)N)cc2)cc1` as well. 1

Please answer likewise for `N=C(N)c1cccc(OCCCCCOc2cccc(C(=N)N)c2)c1` -1

Try this compound next: `Cn1cc(NC(=O)c2cc(NC(=O)CNC(=N)N)cn2C)cc1C(=O)NCCC(=N)N` 1

Now the same for `N=C(N)c1ccc(OCCOc2ccc(C(=N)N)cc2)cc1` -1

Would you mind doing `CC[n+]1c(-c2ccccc2)c2cc(N)ccc2c2ccc(N)cc21` as well? 1

Same lookup for `N=C(N)c1ccc(OCCCCCOc2ccc(C(=N)N)cc2Cl)c(Cl)c1` , please. 1

One more compound: `N=C(N)c1ccc(NCCCCCCNc2ccc(C(=N)N)cc2N)c(N)c1` -1

Quick one: `N=C(N)c1ccc(NCCCCCNc2ccc(C(=N)N)cc2[N+](=O)[O-])c([N+](=O)[O-])c1` 1

Same question, `N=C(N)c1ccc(OCCCOc2ccc(C(=N)N)cc2N)c(N)c1` this time 1

What about this compound? `N=C(N)c1ccc(OCCCCCOc2ccc(C(=N)N)cc2N)c(N)c1` 1

Then what about the compound `N=C(N)c1cccc(OCCCOc2cccc(C(=N)N)c2)c1` ? -1

Consider next the compound `COc1cc(C(=N)N)ccc1OCCCCCOc1ccc(C(=N)N)cc1OC` in the same way. 1

Param item: `N=C(N)c1ccc(NCCCNc2ccc(C(=N)N)cc2N)c(N)c1` 1

How about this compound: `N=C(N)c1ccc(NCCCCCNc2ccc(C(=N)N)cc2N)c(N)c1` 1

---

System: Nucleic Acid
Assay: DNA binding activity as denaturation temperatures on AT to poly (dA)-poly(dT) normalized to ethidium bromide
Format: functional
Classification field: enter label 1 for ΔTm values not below 1, label 0 for values below it.

Example results:
# smiles.record, class.name
measured = [
    ("N=C(N)c1cccc(OCCCCCCOc2cccc(C(=N)N)c2)c1", "label 0"),
    ("N=C(N)c1ccc(NCCCCNc2ccc(C(=N)N)cc2N)c(N)c1", "label 1"),
    ("N=C(N)c1ccc(OCCOc2ccc(C(=N)N)cc2N)c(N)c1", "label 1"),
]

Consider the record given below.
Given the entry `N=C(N)c1ccc(NCCCCCNc2ccc(C(=N)N)cc2[N+](=O)[O-])c([N+](=O)[O-])c1` , answer whether its ΔTm meets or surpasses 1. label 1
